test system: DLD-1; test: Cytotoxicity against human DLD1 cells assessed as growth inhibition; format: functional, cell-based
Property measured: pIC50
pIC50 here is simply -log10 of the concentration when that concentration is written in mol/L.

*Q* State its pIC50 on DLD-1: "COc1cc2c(c(OC)c1OC)-c1ccc(NCCO)c(=O)cc1[C@@H](NC(C)=O)CC2"
*A* 7.16

*Q* Subsequent entry: "COc1cc2c(c(OC)c1OC)-c1ccc(OC)c(=O)cc1[C@@H](NC(C)=O)CC2"
*A* 7.34

*Q* Subsequent entry: "COc1cc2c(c(OC)c1OC)-c1ccc(NCCN)c(=O)cc1[C@@H](NC(C)=O)CC2"
*A* 6.05

*Q* Subsequent entry: COc1cc2c(c(OC)c1OC)-c1ccc(NCCN3CCCC(O)C3)c(=O)cc1[C@@H](NC(C)=O)CC2 (mixture of isomers)
*A* 5.09

*Q* Subsequent entry: "CNCCNc1ccc2c(cc1=O)[C@@H](NC(C)=O)CCc1cc(OC)c(OC)c(OC)c1-2"
*A* 6.89

This collection of values is drawn from ChEMBL document CHEMBL2203080.
